experiment: pH stability study
Format: physicochemical
details: pH 5 buffer, 20° C., 480 min
Field: % Remaining. Provide a value for each of the compounds that follow.

What does the data say about its % Remaining? Entry: `O=C(CCc1cccnc1)ON1C(=O)CCC1=O` 0%

Quick one: `O=C(CCc1cccnc1)Oc1c(F)cccc1F` 92.97%

Please answer likewise for O=C(CCc1cccnc1)Oc1ccc([N+](=O)[O-])cc1 [Compound D, 4-Nitrophenyl-3-(pyridin-3-yl)propanoate] 94.89%

Try this compound too: `O=C(CCc1cccnc1)Oc1c(Cl)cccc1Cl` 100%

Would you kindly repeat that for `O=C(CCc1cccnc1)Oc1c(F)c(F)cc(F)c1F` ? 20.20%

---

experiment: DMSO stability study
Type: physicochemical
details: 120 min
reported-metric: % Active Ester Remaining in DMSO at 22 ± 2° C. (%)
Just the number please, in %, no unit attached.

Query: % Active Ester Remaining in DMSO at 22 ± 2° C.; subject: O=C(CCc1cccnc1)Oc1ccc([N+](=O)[O-])cc1 [Compound D, 4-Nitrophenyl-3-(pyridin-3-yl)propanoate] 99.65

Now give it for O=C(CCc1cccnc1)Oc1c(F)cccc1F [Compound B] too. 99.78

Same question for O=C(CCc1cccnc1)Oc1c(Cl)cccc1Cl [Compound A] please. 99.75

Try O=C(CCc1cccnc1)ON1C(=O)CCC1=O [Compound E] next. 94.53

// same read-out, input: O=C(CCc1cccnc1)Oc1c(F)c(F)cc(F)c1F [Compound C] 92.60

---

experiment: pH stability study
Format: physicochemical
details: pH 7 buffer, 20° C., 60 min
Method: To a 4 mL scintillation vial containing Compound A-E (in respective experiments; 0.8 mg) was added 4 mL of either a pH 3, pH 5 pH 7 or pH 9 buffer to create a 0.2 mg/mL solution. 2 mL of this solution was added to a 2 mL HPLC vial and placed in the auto sampler of an HPLC-MS at 20° C. Timed aliquots at time (T)=15, 30, 60, 120, 240 and 480 minutes were taken and analyzed by HPLC-MS using elution method 1 (Table 3). […]
reported-metric: % Remaining (%)
Dear colleague, please return just the value in %, with no unit written.

Report % Remaining for O=C(CCc1cccnc1)Oc1c(F)c(F)cc(F)c1F [Compound C] please. 73.25

Thanks! And O=C(CCc1cccnc1)ON1C(=O)CCC1=O [Compound E] ? 19.80

Lookup O=C(CCc1cccnc1)Oc1c(F)cccc1F [Compound B] 97.44

Now consider O=C(CCc1cccnc1)Oc1c(Cl)cccc1Cl [Compound A] . 100

Would you kindly repeat that for O=C(CCc1cccnc1)Oc1ccc([N+](=O)[O-])cc1 [Compound D, 4-Nitrophenyl-3-(pyridin-3-yl)propanoate] ? 96.59

---

experiment: DMSO stability study
Assay type: physicochemical
details: 15 min
I'd be grateful if you could share measured % Active Ester Remaining in DMSO at 22 ± 2° C. for these entries.
Report the figure in % without appending any unit label.

I'd like to know its % Active Ester Remaining in DMSO at 22 ± 2° C.. The molecule in question is `O=C(CCc1cccnc1)Oc1c(Cl)cccc1Cl` 100

Try this molecule next: `O=C(CCc1cccnc1)Oc1c(F)cccc1F` 99.89

Would you mind doing O=C(CCc1cccnc1)Oc1ccc([N+](=O)[O-])cc1 [Compound D, 4-Nitrophenyl-3-(pyridin-3-yl)propanoate] as well? 99.35

Query `O=C(CCc1cccnc1)ON1C(=O)CCC1=O` next 97.29

Now this one: `O=C(CCc1cccnc1)Oc1c(F)c(F)cc(F)c1F` 96.55

Values were extracted from patent US20240139333A1.
